Listed here are compounds together with their documented IC50.
System: K562/adr (drug-resistant, chronic myeloid leukemia, CML)
Assay: MTT leukemia cell growth inhibition, 72 h
Type: cell-based, human
Details: Homo sapiens, K562/Adr, read-out: IC50
Report the value in µg/mL with no unit label.

Examples with answers:
COC1=C[C@]23CCCN2CCc2cc4c(cc2[C@@H]3[C@@H]1OC(=O)[C@@](O)(CCCC(C)(C)O)CC(=O)N1CCN(c2ccc(F)cc2)CC1)OCO4 [BS-HH-046]; 14.5
COC1=C[C@]23CCCN2CCc2cc4c(cc2[C@@H]3[C@@H]1OC(=O)[C@@](O)(CCCC(C)(C)O)CC(=O)N1CCC(N(C)C)CC1)OCO4 [BS-HH-050]; 0.72
COC1=C[C@]23CCCN2CCc2cc4c(cc2[C@@H]3[C@@H]1OC(=O)[C@@](O)(CCCC(C)(C)O)CC(=O)NC1CCCCC1)OCO4 [BS-HH-042]; 3.2
COC(=O)C[C@](O)(CCCC(C)(C)O)C(=O)O[C@@H]1C(OC)=C[C@]23CCCN2CCc2cc4c(cc2[C@H]13)OCO4 [HHT, reference compound]; 0.035

Exercise: What value of measured IC50 is listed for COC1=C[C@]23CCCN2CCc2cc4c(cc2[C@@H]3[C@@H]1OC(=O)[C@@](O)(CCCC(C)(C)O)CC(=O)N1CCC(C#N)CC1)OCO4 [BS-HH-035] ?
Solution: 14.1

Exercise: Try COC1=C[C@]23CCCN2CCc2cc4c(cc2[C@@H]3[C@@H]1OC(=O)[C@@](O)(CCCC(C)(C)O)CC(=O)N1CCN(c2ccccn2)CC1)OCO4 [BS-HH-044] next.
Solution: 5.18

Exercise: Entry to check: COC1=C[C@]23CCCN2CCc2cc4c(cc2[C@@H]3[C@@H]1OC(=O)[C@@](O)(CCCC(C)(C)O)CC(=O)N1CC=CC1)OCO4 [BS-HH-018]
Solution: 7.77

###

System: MGC 803 (human gastric cancer cell)
Assay: MTT solid tumor cell growth inhibition, 72 h
Assay type: cell-based
Details: Homo sapiens; MGC 803, 72 h; read-out: IC90
Description: […] Obtaining 4000 well-growing human solid tumor cells and inoculating them into wells of a 96-well cell culture plate. […] Then the viable cell concentration is determined by the MTT method and the cell viability (%) after drug treatment is calculated. […]
READOUT_NAME: IC90 (µg/mL)
Express the result in µg/mL but write the number alone.

Please review the following examples before continuing.
CCN1CCN(C(=O)C[C@](O)(CCCC(C)(C)O)C(=O)O[C@@H]2C(OC)=C[C@]34CCCN3CCc3cc5c(cc3[C@H]24)OCO5)CC1; 11.8
COC1=C[C@]23CCCN2CCc2cc4c(cc2[C@@H]3[C@@H]1OC(=O)[C@@](O)(CCCC(C)(C)O)CC(=O)N1CCCCC1)OCO4; 26.7
COC1=C[C@]23CCCN2CCc2cc4c(cc2[C@@H]3[C@@H]1OC(=O)[C@@](O)(CCCC(C)(C)O)CC(=O)N1CCN(C(C)C)CC1)OCO4; 11.8
COC1=C[C@]23CCCN2CCc2cc4c(cc2[C@@H]3[C@@H]1OC(=O)[C@@](O)(CCCC(C)(C)O)CC(=O)NCc1ccc(C)o1)OCO4; 6
COC1=C[C@]23CCCN2CCc2cc4c(cc2[C@@H]3[C@@H]1OC(=O)[C@@](O)(CCCC(C)(C)O)CC(=O)N1CC=CC1)OCO4; 4.96

Exercise: I have this compound here, COC1=C[C@]23CCCN2CCc2cc4c(cc2[C@@H]3[C@@H]1OC(=O)[C@@](O)(CCCC(C)(C)O)CC(=O)NC1CCCCC1)OCO4 , and I need its recorded IC90.
Solution: 0.25

Exercise: Then this compound: COC1=C[C@]23CCCN2CCc2cc4c(cc2[C@@H]3[C@@H]1OC(=O)[C@@](O)(CCCC(C)(C)O)CC(=O)N1CCCCC1C)OCO4 (stereo partly shown)
Solution: 9.29

Exercise: For COCCCNC(=O)C[C@](O)(CCCC(C)(C)O)C(=O)O[C@@H]1C(OC)=C[C@]23CCCN2CCc2cc4c(cc2[C@H]13)OCO4 then?
Solution: 24.3

Exercise: What do you have for COC1=C[C@]23CCCN2CCc2cc4c(cc2[C@@H]3[C@@H]1OC(=O)[C@@](O)(CCCC(C)(C)O)CC(=O)N1CCN(c2ccc(F)cc2)CC1)OCO4 ?
Solution: 8.28

###

Tested on: NB4 (acute promyelocytic leukemia, AML)
Assay: MTT leukemia cell growth inhibition, 72 h
Assay type: cell-based, human
Settings: Homo sapiens; NB4, 72 h; read-out: IC50
IC50 overview
Respond with the bare value in µg/mL.

COC1=C[C@]23CCCN2CCc2cc4c(cc2[C@@H]3[C@@H]1OC(=O)[C@@](O)(CCCC(C)(C)O)CC(=O)Nc1nccs1)OCO4; 5.62

Now for a further compound.
Exercise: Could you share which IC50 value was measured for COC1=C[C@]23CCCN2CCc2cc4c(cc2[C@@H]3[C@@H]1OC(=O)[C@@](O)(CCCC(C)(C)O)CC(=O)N1CCC(C#N)CC1)OCO4 ?
Solution: 0.72

###

Test system: Kasumi-1 (acute myeloid leukemia M2 type, AML-M2)
Test: MTT leukemia cell growth inhibition, 72 h
Type: cell-based, human
Settings: Homo sapiens; Kasumi-1, 72 h; read-out: IC90
Please assign label 0 whenever IC90 is at or above 7 µg/mL, and label 1 whenever it is below.

COC1=C[C@]23CCCN2CCc2cc4c(cc2[C@@H]3[C@@H]1OC(=O)[C@@](O)(CCCC(C)(C)O)CC(=O)N1CCN(C)CC1)OCO4; label 0
COC1=C[C@]23CCCN2CCc2cc4c(cc2[C@@H]3[C@@H]1OC(=O)[C@@](O)(CCCC(C)(C)O)CC(=O)NC1CCCCC1)OCO4; label 1
COC1=C[C@]23CCCN2CCc2cc4c(cc2[C@@H]3[C@@H]1OC(=O)[C@@](O)(CCCC(C)(C)O)CC(=O)NCc1cccs1)OCO4; label 1
COC1=C[C@]23CCCN2CCc2cc4c(cc2[C@@H]3[C@@H]1OC(=O)[C@@](O)(CCCC(C)(C)O)CC(=O)N1CCSCC1)OCO4; label 0
COC1=C[C@]23CCCN2CCc2cc4c(cc2[C@@H]3[C@@H]1OC(=O)[C@@](O)(CCCC(C)(C)O)CC(=O)N1CCCC(C)C1)OCO4 (some centres unmarked); label 0
COC1=C[C@]23CCCN2CCc2cc4c(cc2[C@@H]3[C@@H]1OC(=O)[C@@](O)(CCCC(C)(C)O)CC(=O)N1CCOCC1)OCO4; label 0

Exercise: API: query returns whether the molecule falls strictly under 7 µg/mL in IC90. Query: COC1=C[C@]23CCCN2CCc2cc4c(cc2[C@@H]3[C@@H]1OC(=O)[C@@](O)(CCCC(C)(C)O)CC(=O)N1CCN(c2ccccn2)CC1)OCO4
Solution: label 1

Exercise: Now the molecule COC1=C[C@]23CCCN2CCc2cc4c(cc2[C@@H]3[C@@H]1OC(=O)[C@@](O)(CCCC(C)(C)O)CC(=O)N1CCC(N(C)C)CC1)OCO4
Solution: label 1

###

System: Becap37 (human breast cancer cell)
Assay: MTT solid tumor cell growth inhibition, 72 h
Assay type: cell-based
Settings: Homo sapiens; Becap37, 72 h; read-out: IC90
READOUT_NAME: IC90

For orientation, consider the following solved cases.
COC1=C[C@]23CCCN2CCc2cc4c(cc2[C@@H]3[C@@H]1OC(=O)[C@@](O)(CCCC(C)(C)O)CC(=O)N1CC=CC1)OCO4; > 16 µg/mL
CCN1CCN(C(=O)C[C@](O)(CCCC(C)(C)O)C(=O)O[C@@H]2C(OC)=C[C@]34CCCN3CCc3cc5c(cc3[C@H]24)OCO5)CC1; > 16 µg/mL

Alright, here's another compound for you.
Exercise: Recorded IC90 for COC1=C[C@]23CCCN2CCc2cc4c(cc2[C@@H]3[C@@H]1OC(=O)[C@@](O)(CCCC(C)(C)O)CC(=O)Nc1nccs1)OCO4 , please?
Solution: > 16 µg/mL

###

System: MG63 (osteosarcoma)
Assay: MTT solid tumor cell growth inhibition, 72 h
Assay type: cell-based, human
Conditions: Homo sapiens; MG 63, 72 h; read-out: IC50
In this section we review reported IC50 values for a set of molecules.

Reference set, count: 8
COC1=C[C@]23CCCN2CCc2cc4c(cc2[C@@H]3[C@@H]1OC(=O)[C@@](O)(CCCC(C)(C)O)CC(=O)N1CCC(C#N)CC1)OCO4; 1.98 µg/mL
CCN1CCN(C(=O)C[C@](O)(CCCC(C)(C)O)C(=O)O[C@@H]2C(OC)=C[C@]34CCCN3CCc3cc5c(cc3[C@H]24)OCO5)CC1; 1.97 µg/mL
COC1=C[C@]23CCCN2CCc2cc4c(cc2[C@@H]3[C@@H]1OC(=O)[C@@](O)(CCCC(C)(C)O)CC(=O)NCc1ccc(C)o1)OCO4; 0.12 µg/mL
COC1=C[C@]23CCCN2CCc2cc4c(cc2[C@@H]3[C@@H]1OC(=O)[C@@](O)(CCCC(C)(C)O)CC(=O)N1CCN(CCO)CC1)OCO4; 14.1 µg/mL
COC1=C[C@]23CCCN2CCc2cc4c(cc2[C@@H]3[C@@H]1OC(=O)[C@@](O)(CCCC(C)(C)O)CC(=O)NC1CCCCC1)OCO4; 0.12 µg/mL
COC1=C[C@]23CCCN2CCc2cc4c(cc2[C@@H]3[C@@H]1OC(=O)[C@@](O)(CCCC(C)(C)O)CC(=O)N1CCN(C)CC1)OCO4; 1.72 µg/mL
COC1=C[C@]23CCCN2CCc2cc4c(cc2[C@@H]3[C@@H]1OC(=O)[C@@](O)(CCCC(C)(C)O)CC(=O)N1CC=CC1)OCO4; 0.96 µg/mL
COC1=C[C@]23CCCN2CCc2cc4c(cc2[C@@H]3[C@@H]1OC(=O)[C@@](O)(CCCC(C)(C)O)CC(=O)N1CCN(c2ccccn2)CC1)OCO4; 0.8 µg/mL

Read the next record carefully.
Exercise: What IC50 value was documented for this molecule, COC1=C[C@]23CCCN2CCc2cc4c(cc2[C@@H]3[C@@H]1OC(=O)[C@@](O)(CCCC(C)(C)O)CC(=O)N1CCCCC1)OCO4 ?
Solution: 2.72 µg/mL

Cited source: patent US9676789B2
